Sourced from the supplement of paper PMC10126150

tested on: ATP; experiment: switch fluorescence ratio, 500 uM ATP over buffer (Cy3 cluster intensity, sum of 5 cycles each) (fold (ratio)); higher = stronger signal-on switching upon ATP binding; sequences stand for … in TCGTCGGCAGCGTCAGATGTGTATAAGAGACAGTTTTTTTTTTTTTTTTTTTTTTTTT…TC; conditions: aptamer strand: ATP DNA aptamer (quencher-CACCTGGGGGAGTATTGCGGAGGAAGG + anchor), 100 nM annealed; ATP concentration: 500 uM;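 note: ATP exposure 15 min at 22 °C before imaging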
Listing: switch fluorescence ratio of selected sequences
measure: switch fluorescence ratio

>  <polymer.sequence>
AGTTGATTGG

>  <assay.value>
0.983

$$$$
>  <polymer.sequence>
GTTGGGGGGA

>  <assay.value>
1

$$$$
>  <polymer.sequence>
CCTAGTTGTG

>  <assay.value>
1.02

$$$$
>  <polymer.sequence>
AAATTTATGT

>  <assay.value>
0.972

$$$$
>  <polymer.sequence>
TTCAGGGGCT

>  <assay.value>
1.43

$$$$
>  <polymer.sequence>
CTCCTTAGTT

>  <assay.value>
1.05

$$$$
>  <polymer.sequence>
CTTTGATTTT

>  <assay.value>
1.01

$$$$
>  <polymer.sequence>
AAAGGGAGTA

>  <assay.value>
0.999

$$$$
>  <polymer.sequence>
ATCGCGTTGG

>  <assay.value>
0.983

$$$$
>  <polymer.sequence>
ATAGTGGGGC

>  <assay.value>
1.06

$$$$

====

test system: ATP; assay: switch fluorescence ratio, 500 uM ATP over buffer (Cy3 cluster intensity, sum of 5 cycles each) (fold (ratio)); higher = stronger signal-on switching upon ATP binding; sequences stand for … in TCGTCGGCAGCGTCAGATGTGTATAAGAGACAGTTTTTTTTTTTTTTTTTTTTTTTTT…TC; details: aptamer strand: ATP DNA aptamer (quencher-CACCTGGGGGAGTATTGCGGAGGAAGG + anchor), 100 nM annealed; ATP concentration: 500 uM;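 note: ATP exposure 15 min at 22 °C before imaging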
Parameter switch fluorescence ratio: see the listing below.

>  <polymer.sequence>
TGGCTGTTGA

>  <switch fluorescence ratio>
1.01

$$$$
>  <polymer.sequence>
GGGCAATTGA

>  <switch fluorescence ratio>
1

$$$$
>  <polymer.sequence>
GATTGAGACT

>  <switch fluorescence ratio>
1.01

$$$$
>  <polymer.sequence>
GCTTACGGTG

>  <switch fluorescence ratio>
1.01

$$$$
>  <polymer.sequence>
TATTACAAT

>  <switch fluorescence ratio>
1.03

$$$$
>  <polymer.sequence>
AAGTGGAATT

>  <switch fluorescence ratio>
1.03

$$$$
>  <polymer.sequence>
AATCGTCATC

>  <switch fluorescence ratio>
0.991

$$$$
>  <polymer.sequence>
TCGGGTCTGC

>  <switch fluorescence ratio>
1.01

$$$$
>  <polymer.sequence>
GCCATCGTCG

>  <switch fluorescence ratio>
1.01

$$$$
>  <polymer.sequence>
GGTTTTTAAA

>  <switch fluorescence ratio>
1

$$$$
>  <polymer.sequence>
ACTAAATAGT

>  <switch fluorescence ratio>
0.987

$$$$
>  <polymer.sequence>
GCTTGAGGTA

>  <switch fluorescence ratio>
1.02

$$$$
>  <polymer.sequence>
GGTTTTAGTG

>  <switch fluorescence ratio>
0.967

$$$$
>  <polymer.sequence>
AGAAGAAGGG

>  <switch fluorescence ratio>
1.03

$$$$
>  <polymer.sequence>
GATATAAGGG

>  <switch fluorescence ratio>
0.979

$$$$
>  <polymer.sequence>
GGATTAAAGC

>  <switch fluorescence ratio>
0.998

$$$$
>  <polymer.sequence>
TTCGGATGGC

>  <switch fluorescence ratio>
1.01

$$$$
>  <polymer.sequence>
TTTGGCGGAA

>  <switch fluorescence ratio>
1.04

$$$$
>  <polymer.sequence>
ATGGCGGACG

>  <switch fluorescence ratio>
0.981

$$$$
>  <polymer.sequence>
AAGTACGCGG

>  <switch fluorescence ratio>
1.01

$$$$
>  <polymer.sequence>
TGTCCACTAC

>  <switch fluorescence ratio>
2.78

$$$$

====

# maps each entry to its switch fluorescence ratio
tested on: ATP; assay: switch fluorescence ratio, 500 uM ATP over buffer (Cy3 cluster intensity, sum of 5 cycles each) (fold (ratio)); higher = stronger signal-on switching upon ATP binding; sequences stand for … in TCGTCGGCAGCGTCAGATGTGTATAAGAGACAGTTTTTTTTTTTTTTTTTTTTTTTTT…TC; conditions: aptamer strand: ATP DNA aptamer (quencher-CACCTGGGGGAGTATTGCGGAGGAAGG + anchor), 100 nM annealed; ATP concentration: 500 uM;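 note: ATP exposure 15 min at 22 °C before imaging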

>  <polymer.sequence>
GTGACACACC

>  <switch fluorescence ratio>
1.15

$$$$
>  <polymer.sequence>
GAATTGGATC

>  <switch fluorescence ratio>
1.02

$$$$
>  <polymer.sequence>
CGTTAGTTCT

>  <switch fluorescence ratio>
1

$$$$
>  <polymer.sequence>
TGTATTTTTG

>  <switch fluorescence ratio>
1.02

$$$$
>  <polymer.sequence>
TACAGACTGT

>  <switch fluorescence ratio>
1.04

$$$$
>  <polymer.sequence>
GCAGGTTGAG

>  <switch fluorescence ratio>
1.01

$$$$
>  <polymer.sequence>
TGGATATGGT

>  <switch fluorescence ratio>
1.01

$$$$
>  <polymer.sequence>
TTTCCGGGAC

>  <switch fluorescence ratio>
1.41

$$$$
>  <polymer.sequence>
CATATTCAAT

>  <switch fluorescence ratio>
1

$$$$
>  <polymer.sequence>
TATAGCATGT

>  <switch fluorescence ratio>
1.04

$$$$
>  <polymer.sequence>
CCTTGGCTTT

>  <switch fluorescence ratio>
1.53

$$$$
>  <polymer.sequence>
GTGGAAGGTT

>  <switch fluorescence ratio>
0.995

$$$$
>  <polymer.sequence>
TCAACAACCA

>  <switch fluorescence ratio>
1.06

$$$$
>  <polymer.sequence>
CTTCGGAGGT

>  <switch fluorescence ratio>
1.03

$$$$
>  <polymer.sequence>
TAGGGTTGGC

>  <switch fluorescence ratio>
0.969

$$$$
>  <polymer.sequence>
AGACGCAGGG

>  <switch fluorescence ratio>
1.03

$$$$
>  <polymer.sequence>
GGGGAGAGAG

>  <switch fluorescence ratio>
0.975

$$$$
>  <polymer.sequence>
GGGTAGGGAC

>  <switch fluorescence ratio>
1.01

$$$$
>  <polymer.sequence>
TTGTGCCGGT

>  <switch fluorescence ratio>
0.988

$$$$
>  <polymer.sequence>
ATCTTAGGTT

>  <switch fluorescence ratio>
1.03

$$$$
>  <polymer.sequence>
AGGACAGATA

>  <switch fluorescence ratio>
1.01

$$$$
>  <polymer.sequence>
GGGGGAAGTT

>  <switch fluorescence ratio>
0.986

$$$$
>  <polymer.sequence>
CGGGGGATTT

>  <switch fluorescence ratio>
1.01

$$$$
>  <polymer.sequence>
TGGGGGAGGT

>  <switch fluorescence ratio>
1

$$$$
>  <polymer.sequence>
AACGTAGGAC

>  <switch fluorescence ratio>
1.1

$$$$
>  <polymer.sequence>
TGATTTGGGG

>  <switch fluorescence ratio>
0.968

$$$$
>  <polymer.sequence>
GCTACCTTTG

>  <switch fluorescence ratio>
1.01

$$$$
>  <polymer.sequence>
CTCTGTGGTG

>  <switch fluorescence ratio>
1.02

$$$$
>  <polymer.sequence>
TTCCAATGAT

>  <switch fluorescence ratio>
1.01

$$$$
>  <polymer.sequence>
GGGATCGTAT

>  <switch fluorescence ratio>
0.986

$$$$
>  <polymer.sequence>
GCAGAGTCGT

>  <switch fluorescence ratio>
0.999

$$$$
>  <polymer.sequence>
CCTTGGAACG

>  <switch fluorescence ratio>
1.03

$$$$
>  <polymer.sequence>
TGGTGCTTGT

>  <switch fluorescence ratio>
1.02

$$$$
>  <polymer.sequence>
CGGGTTTGAC

>  <switch fluorescence ratio>
0.984

$$$$
>  <polymer.sequence>
AAAAGGGCAT

>  <switch fluorescence ratio>
1.01

$$$$
>  <polymer.sequence>
TAAGTGACCG

>  <switch fluorescence ratio>
1.07

$$$$
>  <polymer.sequence>
TTCGTTAAGA

>  <switch fluorescence ratio>
0.992

$$$$
>  <polymer.sequence>
GTTTTTAGAC

>  <switch fluorescence ratio>
1.03

$$$$
>  <polymer.sequence>
GCCCGGAGCG

>  <switch fluorescence ratio>
1.68

$$$$
>  <polymer.sequence>
TTAAGTCTTC

>  <switch fluorescence ratio>
0.964

$$$$
>  <polymer.sequence>
GGGCATGGGC

>  <switch fluorescence ratio>
0.996

$$$$
>  <polymer.sequence>
GCCGTACCTG

>  <switch fluorescence ratio>
1.04

$$$$
>  <polymer.sequence>
GGCGCGATGG

>  <switch fluorescence ratio>
1.55

$$$$

====

tested on: ATP; experiment: switch fluorescence ratio, 500 uM ATP over buffer (Cy3 cluster intensity, sum of 5 cycles each) (fold (ratio)); higher = stronger signal-on switching upon ATP binding; sequences stand for … in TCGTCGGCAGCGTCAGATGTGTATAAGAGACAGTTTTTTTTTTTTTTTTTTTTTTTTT…TC; conditions: aptamer strand: ATP DNA aptamer (quencher-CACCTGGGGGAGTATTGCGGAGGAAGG + anchor), 100 nM annealed; ATP concentration: 500 uM;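 note: ATP exposure 15 min at 22 °C before imaging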
Listed sequences paired with reported switch fluorescence ratio

>  <polymer.sequence>
TTTGAGCTTG

>  <switch fluorescence ratio>
0.981

$$$$
>  <polymer.sequence>
GTTGTATGAT

>  <switch fluorescence ratio>
0.984

$$$$
>  <polymer.sequence>
AAGTGGTGGG

>  <switch fluorescence ratio>
0.985

$$$$
>  <polymer.sequence>
ATGCCATTAG

>  <switch fluorescence ratio>
0.967

$$$$
>  <polymer.sequence>
TTAGGGCCAA

>  <switch fluorescence ratio>
1

$$$$
>  <polymer.sequence>
GGGTTAGAAG

>  <switch fluorescence ratio>
0.98

$$$$
>  <polymer.sequence>
GGCAAAAACG

>  <switch fluorescence ratio>
1.16

$$$$
>  <polymer.sequence>
GTGTATAGAT

>  <switch fluorescence ratio>
1.01

$$$$
>  <polymer.sequence>
GGGCTTTCTG

>  <switch fluorescence ratio>
0.98

$$$$
>  <polymer.sequence>
CGGATGGCCT

>  <switch fluorescence ratio>
1.03

$$$$
>  <polymer.sequence>
TTATTGTTAC

>  <switch fluorescence ratio>
1.03

$$$$
>  <polymer.sequence>
ACGGTCGGA

>  <switch fluorescence ratio>
0.998

$$$$
>  <polymer.sequence>
GATAAATTTT

>  <switch fluorescence ratio>
0.974

$$$$
>  <polymer.sequence>
CAGTAGAATT

>  <switch fluorescence ratio>
1.02

$$$$
>  <polymer.sequence>
GGGTCAATAT

>  <switch fluorescence ratio>
1.13

$$$$
>  <polymer.sequence>
TACTGTAGGG

>  <switch fluorescence ratio>
1.12

$$$$
>  <polymer.sequence>
CGGATGGAGG

>  <switch fluorescence ratio>
0.988

$$$$
>  <polymer.sequence>
CCTTTTTTGG

>  <switch fluorescence ratio>
1.02

$$$$
>  <polymer.sequence>
TGTCAGAGGG

>  <switch fluorescence ratio>
1.01

$$$$
>  <polymer.sequence>
ATCGCAGCTC

>  <switch fluorescence ratio>
1.62

$$$$
>  <polymer.sequence>
GGTGTGGCTC

>  <switch fluorescence ratio>
1

$$$$
